Documented Kd across a set of binders
Biological target: T1, Human PD-1-His protein (Cat. #10377H08H, Sino Biological) (human, UniProt Q15116 25-167)
T1 construct: Bought protein; also called hPD-1-His; hu PD-1-his; not shown: His tag of the bought protein
T1 sequence (Q15116 25-167 limits assumed): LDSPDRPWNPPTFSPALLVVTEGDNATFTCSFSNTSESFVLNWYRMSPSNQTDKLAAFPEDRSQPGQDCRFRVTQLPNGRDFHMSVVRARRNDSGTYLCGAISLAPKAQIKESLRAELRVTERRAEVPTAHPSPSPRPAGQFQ
Assay: SPR (Biacore), antibody captured on Protein A chip, PD-1 in flow
Your answer is read as nM, so omit the unit and give the number.

Solved entries:
binder="Hu32a-29.IgG4AA (antibody, V domains shown, Full-length IgG4-AA, kappa) VH: EVQLVQSGAEVKKPGSSVKVSCKASGFTFSDYEIHWVRQAPGQGLEWMGLFDPETGGIVYNQKFKGRVTLTADKSTSTAYMELSSLRSEDTAVYYCTREGYNRDWYFDVWGQGTTVTVSS VL: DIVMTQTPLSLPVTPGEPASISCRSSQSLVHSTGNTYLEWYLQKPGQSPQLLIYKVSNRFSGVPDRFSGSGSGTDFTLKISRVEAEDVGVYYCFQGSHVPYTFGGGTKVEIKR" observable=Kd unit_abbrev=nM result_number=7.86
binder="Hu23-11.IgG4AA (antibody, V domains shown, Full-length IgG4-AA, kappa; also called Hu23LCDR1 (N28T)) VH: EVQLVQSGAEVKKPGSSVKVSCKASGGTFSDYEMHWVRQAPGQGLEWMGLIDPETGGTVYNQKFKDRVTITADKSTSTAYMELSSLRSEDTAVYYCARERFSYYGSTSDWYFDVWGQGTTVTVSS VL: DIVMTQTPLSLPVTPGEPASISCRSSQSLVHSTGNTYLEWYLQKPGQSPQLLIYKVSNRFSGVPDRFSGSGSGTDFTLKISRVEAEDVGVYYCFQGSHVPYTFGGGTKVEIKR" observable=Kd unit_abbrev=nM result_number=2.71

Continue with the binder presented below.
Input: Item under review: Hu23-14.IgG4AA (antibody, V domains shown, Full-length IgG4-AA, kappa; also called Hu23LCDR1 (G29V)) VH: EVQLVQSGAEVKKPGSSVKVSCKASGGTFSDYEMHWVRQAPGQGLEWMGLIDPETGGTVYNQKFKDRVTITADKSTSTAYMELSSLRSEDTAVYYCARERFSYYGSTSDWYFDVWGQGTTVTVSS VL: DIVMTQTPLSLPVTPGEPASISCRSSQSLVHSNVNTYLEWYLQKPGQSPQLLIYKVSNRFSGVPDRFSGSGSGTDFTLKISRVEAEDVGVYYCFQGSHVPYTFGGGTKVEIKR . Reported Kd?
Output: 2.22
